# Tested on: Plasmodium falciparum
# protocol: Calibr Malaria Delayed Death Assay SOP
# Assay type: functional, organism-based
# Parameters: scale not given: in the data most compounds retested in dose-response had high values
# condition details: concentration 4.99e-06 (unit not given; other assays of the set use mol/L)
The campaign covered roughly 38,000 compounds. About 1,200 (3.2%) showed an effect of 50% or more. The median lay at about -58%. Shown is part of a subset that was picked to be rich in strong results.
So basically, the class depends on measured Percent Effect, and the ranges are low interval (below -60%), middle interval (-60% to below 60%), high interval (60% or more)

Observe how each entry below is paired with its result.
CCN1CCC(CNC(=O)NCc2cc(-c3ccc(C)cc3)no2)C1 (configuration not stated)
low interval
COC(=O)c1cc(OCC2CCC2)cc(C(=O)N[C@H](C)C(N)=O)c1
low interval
CCn1ncnc1C(C)Nc1cc(C2CC2)ncn1 (configuration not stated)
low interval
CCN1CCC(CNCc2cc(OC)ccc2OC)C1 (configuration not stated)
middle interval

Lab note: sort CCN1CCC(Cn2ccc3c(OC)c(OC)ccc3c2=O)C1 (configuration not stated) into the matching Percent Effect band. middle interval

Lab note: sort CCC(=O)N1CCC2(CC1)COc1ccccc1S(=O)(=O)N(C)C2 into the matching Percent Effect band. middle interval

Lab note: sort COc1ccc(N2CCCC3(C2)CN(c2nncs2)CCO3)cc1 (configuration not stated) into the matching Percent Effect band. high interval

Lab note: sort c1cc2occc2c(N2CCCC(c3nncn3C3CC3)C2)n1 (configuration not stated) into the matching Percent Effect band. middle interval

Lab note: sort CCN1CCC(CNCc2cc(C)ccc2OC)C1 (configuration not stated) into the matching Percent Effect band. high interval

Lab note: sort Cc1nc2ccccc2nc1CN1CCOC(Cn2cccn2)C1 (configuration not stated) into the matching Percent Effect band. middle interval

Lab note: sort CN1CC2(CCN(C(=O)C3CCC3)CC2)COc2ccccc2S1(=O)=O into the matching Percent Effect band. middle interval

Lab note: sort CCc1ccccc1OCCN(C)C(=O)CN1CCCC1 into the matching Percent Effect band. high interval

###

# Tested on: Plasmodium falciparum
# protocol: Calibr Malaria Delayed Death Assay SOP
# Format: functional, organism-based
# Parameters: scale not given: in the data most compounds retested in dose-response had high values
# condition details: concentration 4.99e-06 (unit not given; other assays of the set use mol/L)
Out of some 38,000 compounds screened, about 1,200 (3.2%) showed an effect of 50% or more. The median lay at about -58%. Only a selection was taken, and strong results are over-represented in it overall.
Percent Effect values for the compounds below.
Give the number; % is assumed, so skip it.

Please review the entries below; each comes with its answer.
CC(Nc1ccc(Br)cc1)c1nc(C2CC2)no1 (configuration not stated)
-70.57
c1cncc(-c2nc3c(c(NCC4(c5ccncc5)CC4)n2)CCC3)c1
-35.93
CC(O)CNc1nc(-c2cccnc2)nc2c1CCC2 (configuration not stated)
-47.48
COc1ccc(CN(C)Cc2cccc(C#N)c2)c(OC)c1
25.49
COCCN1CCC(CNC(=O)c2cc(Cl)c[nH]2)CC1
-1.799
CCc1cnc(N2C[C@@H]3[C@@H](C(=O)N(C)C)CCS(=O)(=O)[C@@H]3C2)nc1
-56.54
O=C(c1ccc(-n2cccc2)c(F)c1)N1CCCN2CCCC2C1 (configuration not stated)
6.651
O=C(NCC1CCN(CCc2ccccc2)C1)c1cc(Cl)c[nH]1 (configuration not stated)
64.57

# return recorded Percent Effect for input Cc1noc(C(C)C)c1C(=O)NCCCOC(C)C -142.4

# return recorded Percent Effect for input CCN1CCC(CNC(=O)c2cc(Cl)c[nH]2)CC1 -105.8

# return recorded Percent Effect for input COc1ccccc1C1(CNCc2cccc(C#N)c2)CCOCC1 66.05

# return recorded Percent Effect for input CC(C)CNC(=O)c1cccc(Oc2ccc3nncn3n2)c1 -53.64
